Target: Cathepsin K (Homo sapiens, UniProt P43235)
Construct: purchased Biovision K150-100
Sequence (P43235 115-329): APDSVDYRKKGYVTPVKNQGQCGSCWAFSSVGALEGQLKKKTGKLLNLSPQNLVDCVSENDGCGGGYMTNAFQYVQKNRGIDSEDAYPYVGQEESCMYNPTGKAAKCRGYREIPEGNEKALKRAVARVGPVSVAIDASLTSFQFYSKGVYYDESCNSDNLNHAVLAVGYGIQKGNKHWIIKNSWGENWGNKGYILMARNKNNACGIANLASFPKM
Assay: Preliminary screening of Cathepsin K (Cathepsin K Inhibitor Screening Kit K150-100, Biovision)
Assay type: biochemical
Conditions: 10 μM compound; replicate 2; relative inhibition rate vs 10 μM FF-FMK control; read-out: Inhibition % (10 μM) replicate 2
Experimental: 1. Method for preliminary screening of Cathepsin K: Preliminary screening of Cathepsin K was performed by using Cathepsin K Inhibitor Screening Kit (Product No. K150-100) from Biovision Company. 1.1.1 Preparation of Cathepsin K enzyme solution: Cathepsin K enzyme (40 μl) and Cathepsin K reagent (80 μl) were added to Cathepsin K buffer (3.88 ml), and were mixed well, to prepare Cathepsin K enzyme solution with a volume of 4 ml, which was placed on ice for further use. […]
Entries and their inhibition at 10 µM
Field: numeric (%). Do not append units.

| Compound | Observed property | Measure unit | Test value |
| --- | --- | --- | --- |
| CCOC(=O)[C@H]1O[C@@H]1C(=O)N[C@@H](CCSC)C(=O)N1CCSC1 [Compound 38] | inhibition at 10 µM | % | 41.4 |

Consider CCOC(=O)[C@H]1O[C@@H]1C(=O)N[C@@H](CCSC)C(=O)N1CC(C)CC(C)C1 (stereo partly shown) [Compound 41] . Its measured inhibition at 10 µM is 61

Entry CCOC(=O)[C@H]1O[C@@H]1C(=O)N[C@@H](CCSC)C(=O)NCCc1ccc(OC)cc1 [Compound 10] ; inhibition at 10 µM = 66.5

// recorded inhibition at 10 µM for CCCCCNC(=O)[C@H](CCSC)NC(=O)[C@H]1O[C@@H]1C(=O)OCC [Compound 2] : 60
